Quick note: these are log10 of Ki numbers for system: Kappa-type opioid receptor (Homo sapiens, UniProt P41145)
Sequence (P41145 whole entry): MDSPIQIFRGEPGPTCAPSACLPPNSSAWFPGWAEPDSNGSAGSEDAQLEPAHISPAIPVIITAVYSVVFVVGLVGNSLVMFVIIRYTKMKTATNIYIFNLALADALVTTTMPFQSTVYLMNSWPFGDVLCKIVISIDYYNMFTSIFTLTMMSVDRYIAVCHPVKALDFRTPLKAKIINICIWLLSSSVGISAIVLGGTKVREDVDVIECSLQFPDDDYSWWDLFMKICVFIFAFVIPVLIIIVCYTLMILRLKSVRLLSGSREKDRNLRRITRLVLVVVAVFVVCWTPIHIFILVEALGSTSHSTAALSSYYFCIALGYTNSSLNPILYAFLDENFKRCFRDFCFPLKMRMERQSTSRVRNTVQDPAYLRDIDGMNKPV
Assay Metric: log10 of Ki (log10 of the value in µM)

| Compound | log10 of Ki |
| --- | --- |
| N[C@H](c1cccc(C(F)(F)F)c1)[C@H]1CCN1C(c1ccccc1)c1ccccc1 | -0.19 |
| CCCCCC(c1ccccc1)N1CC[C@H]1[C@H](N)c1cccc(Cl)c1 (stereo not given in full) | 0.48 |
| CCCCC(c1cccc(F)c1)N1CC[C@H]1[C@@H](N)c1cccc(Cl)c1 (stereo not given in full) | 0.61 |
| CCCCCCC(c1ccccc1)N1CC[C@H]1[C@H](N)c1cccc(Cl)c1 (stereo not given in full) | 0.46 |
| CCCCCC(c1ccccc1)N1CC[C@H]1[C@@H](N)c1cccc(Cl)c1 (stereo not given in full) | 0.59 |
| CCCCC(c1cccc(F)c1)N1CC[C@H]1[C@H](N)c1cccc(Cl)c1 (stereo not given in full) | 0.33 |
| CCCC(c1ccccc1)N1CC[C@H]1[C@@H](N)c1cccc(Cl)c1 (stereo not given in full) | 0.47 |
| CCCC(c1ccccc1)N1CC[C@H]1[C@H](N)c1cccc(Cl)c1 (stereo not given in full) | 0.86 |
| N[C@@H](c1cc(F)cc(F)c1)[C@@H]1CCN1C(c1ccccc1)c1ccccc1 | 0.60 |
| CC(c1ccccc1)N1CC[C@H]1[C@@H](N)c1cccc(Cl)c1 (stereo not given in full) | 0.61 |
